Biological target: Tyrosine-protein kinase Tec (Homo sapiens);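 also: each value is the mean of the inhibition measurements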
Conditions: at 1 µM
Give measured inhibition for each item. Keep answers brief.
Numbers only, in %.

Look over these answered cases.
Cc1cc(O)cc(C)c1/C=C/c1cncc(-c2nn[nH]n2)c1 65
O=C1NC(=O)C(N2CCc3ccccc32)=C1c1ccc(Cl)cc1 9.11
CCn1c(-c2nonc2N)nc2cncc(C(=O)N3CCNCC3)c21 7.17

Query string: Lab note: need inhibition with Tyrosine-protein kinase Tec (Homo sapiens) for entry `CN1CCC(C(=O)Nc2n[nH]c3nnc(-c4ccccc4)cc23)CC1` , please look it up.
Result string: 4.52

----------
Target: Non-receptor tyrosine-protein kinase TNK1 (Homo sapiens);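 also: values are averaged percent inhibition of TNK1, compounds from the GSK published kinase inhibitor set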
Sequence (whole entry): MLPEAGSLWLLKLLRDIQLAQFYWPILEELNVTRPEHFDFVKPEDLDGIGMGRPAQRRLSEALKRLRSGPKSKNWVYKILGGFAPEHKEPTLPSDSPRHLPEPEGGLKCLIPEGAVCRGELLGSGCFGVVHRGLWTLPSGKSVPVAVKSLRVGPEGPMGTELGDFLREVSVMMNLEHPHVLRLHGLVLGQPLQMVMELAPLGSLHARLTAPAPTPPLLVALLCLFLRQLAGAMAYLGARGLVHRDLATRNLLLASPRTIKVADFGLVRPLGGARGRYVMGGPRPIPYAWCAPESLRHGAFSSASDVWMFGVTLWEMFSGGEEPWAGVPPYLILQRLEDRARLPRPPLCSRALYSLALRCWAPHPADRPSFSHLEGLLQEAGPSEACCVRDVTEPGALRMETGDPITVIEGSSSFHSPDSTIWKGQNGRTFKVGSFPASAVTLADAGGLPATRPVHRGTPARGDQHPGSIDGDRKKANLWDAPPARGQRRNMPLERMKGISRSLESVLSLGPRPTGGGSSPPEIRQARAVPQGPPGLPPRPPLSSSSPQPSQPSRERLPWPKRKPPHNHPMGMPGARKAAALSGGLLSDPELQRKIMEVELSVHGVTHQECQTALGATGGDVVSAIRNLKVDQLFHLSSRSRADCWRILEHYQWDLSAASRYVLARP
Settings: at 1 µM
Reported property: inhibition (%)
One number for each entry, in %.

Compound	inhibition / %
COc1cc2ncn(-c3cc(OCc4ccccc4C(F)(F)F)c(C(N)=O)s3)c2cc1OC	59.1

For every item below, please supply its inhibition.
1. Nc1nc(-c2ccccn2)c(-c2ccc3ncccc3n2)s1
2. CCCN1CCC(Oc2cc(Nc3nc(Nc4cccc(F)c4C(N)=O)c4cc[nH]c4n3)c(OC)cc2Cl)CC1
3. CCn1c(-c2nonc2N)nc2cncc(C(=O)N3CC[C@H](N)C3)c21

Result string:
1. 5.67
2. 1.46
3. 2.95

Go through the list and state inhibition for each entry.
1. CCc1cccc(NC(=O)Nc2ccc(Oc3ccc4nc(NC(=O)OC)[nH]c4c3)cc2)c1
2. CC1=C(C(=O)Nc2ccc3[nH]ncc3c2)C(c2ccc(Cl)c(Cl)c2)CC(=O)N1 (stereo unspecified)
3. CS(=O)(=O)CCNCc1nc(-c2ccc3ncnc(Nc4ccc(F)c(Cl)c4)c3c2)cs1
4. CC(C)=Cc1cccc2c1/C(=N/Nc1ccc(S(N)(=O)=O)cc1)C(=O)N2
5. NC(=O)c1ccc(-c2nc(-c3ccccn3)c(-c3ccc4c(c3)OCO4)[nH]2)cc1
6. N#Cc1c(NC(=O)c2cccc3ccccc23)sc2c1CCCC2
7. O=C1NC(=O)C(c2ccccc2Cl)=C1Nc1cccc(O)c1

Result string:
[13.8, 9.22, 27.1, 65.6, -0.98, -2.02, 2.57]

The values you see were collected from ChEMBL document CHEMBL1961873.
